Hey, just so you know, these numbers are from paper PMC12396409.

system: P. falciparum 3D7 parasites; experiment: P. falciparum growth inhibition assay, 2-cycle (120 h treatment), delayed-death screen and dose-response; format: cell-based, Plasmodium falciparum; settings: library screen at 2 μg/mL, 120 h, % growth, replicate 2
Where a SMILES comes first, the peptide text is derived from it. [ ]: non-standard residue; d: D form. Aoe = N[C@@H](CCCCCC(=O)[C@@H]1CO1)C(=O)O
measured_parameter: Pf_120h_%Growth_Rep2 (%)
Please reply with the bare figure in % and do not write the unit itself.

According to the records, this molecule CCCCCC[C@H]1C(=O)O[C@H](C)[C@H](NC(=O)c2cccc(NC=O)c2O)C(=O)O[C@@H](C)[C@@H]1OC(=O)CC(C)C [Antimycin A1] displays Pf_120h_%Growth_Rep2 of 6.08

According to the records, this molecule COc1cc(/C=C/C(=O)O)ccc1O [Ferulic acid] displays Pf_120h_%Growth_Rep2 of 101.86

According to the records, this molecule C[C@@H]1NC(=O)[C@H](CCCCCC(=O)[C@@H]2CO2)NC(=O)[C@H]2CCCN2C(=O)[C@H](Cc2ccccc2)NC1=O [Alaninechlamydocin, 1-] (cyclo(AF[dP][Aoe])) displays Pf_120h_%Growth_Rep2 of -6.34

According to the records, this molecule C=CC(C)(C)[C@]12C[C@@H]3C(=O)Nc4ccccc4C(=O)N3[C@H]1N(C(C)=O)c1ccccc12 [Acetylaszonalenin] displays Pf_120h_%Growth_Rep2 of 96.89

* * *

As shown below, each of these compounds has a reported percent parasite growth at 2 µg/mL value.
system: T. gondii RH strain (RH-Tub-eYFP) tachyzoites; experiment: microbe, parasite or virus in culture; format: cell-based, Toxoplasma gondii; conditions: Toxoplasma gondii, 72 h, T. gondii, 72 h, screen at 2 μg/mL, replicate 1; read-out: Tg_72h_%Growth_Rep1
# output: number + unit

Check out these entries, answers already filled in.
C[C@H]1CCC/C=C/[C@@H]2C[C@H](O)C[C@H]2[C@H](O)/C=C/C(=O)O1: -1.55%
C=C[C@]1(C)C[C@@H](OC(=O)CSCCN(CC)CC)[C@]2(C)[C@H](C)CC[C@]3(CCC(=O)[C@H]32)[C@@H](C)[C@@H]1O [Tiamulin, reference compound]: 55.8%

// switching to the query compound
The reported T. gondii RH strain (RH-Tub-eYFP) tachyzoites percent parasite growth at 2 µg/mL of CCCCCCCCCC(=O)N[C@@H](Cc1c[nH]c2ccccc12)C(=O)N[C@H](CC(N)=O)C(=O)N[C@@H](CC(=O)O)C(=O)N[C@@H]1C(=O)NCC(=O)N[C@@H](CCCN)C(=O)N[C@@H](CC(=O)O)C(=O)N[C@H](C)C(=O)N[C@@H](CC(=O)O)C(=O)NCC(=O)N[C@H](CO)C(=O)N[C@@H]([C@H](C)CC(=O)O)C(=O)N[C@@H](CC(=O)c2ccccc2N)C(=O)O[C@@H]1C is 132%

* * *

test system: P. falciparum 3D7 parasites; assay: P. falciparum growth inhibition assay, 2-cycle (120 h treatment), delayed-death screen and dose-response; assay type: cell-based, Plasmodium falciparum; conditions: library screen at 2 μg/mL, 120 h, % growth, replicate 2
Where a SMILES comes first, the peptide text is derived from it. Bridges are numbered along the chain shown (N, C = ends). [ ]: non-standard residue; d: D form. The star is where a group is joined. Octatrienoyl(2E,4E,6E) = C/C=C/C=C/C=C/C(=O)*; NMeA = CN[C@@H](C)C(=O)O
measured_parameter: Pf_120h_%Growth_Rep2 (%)
Please reply with the bare figure in % and do not write the unit itself.

The reported P. falciparum 3D7 parasites Pf_120h_%Growth_Rep2 of COc1ccc2c3c([nH]c2c1)[C@H](C=C(C)C)N1C(=O)[C@@H]2CCCN2C(=O)[C@@H]1C3 is 92.77

The reported P. falciparum 3D7 parasites Pf_120h_%Growth_Rep2 of C/C=C/C=C/C=C/C(=O)N[C@@H](Cc1ccccc1)C(=O)N[C@H]1COC(=O)[C@@H]2CCCN2C(=O)[C@H](C)NC(=O)[C@H](C)N(C)C(=O)[C@@H]2CCCN2C1=O [A 54556B] ({Octatrienoyl(2E,4E,6E)}-FSP[NMeA]AP; ester 2-C) is 57.54

The reported P. falciparum 3D7 parasites Pf_120h_%Growth_Rep2 of C[C@H]1OC(=O)C=C[C@@H](O)[C@@H](O)CCCCCCCC[C@@H]1O is 96.20

* * *

test system: P. falciparum 3D7 parasites; experiment: P. falciparum growth inhibition assay, 2-cycle (120 h treatment), delayed-death screen and dose-response; assay type: cell-based, Plasmodium falciparum; details: library screen at 2 μg/mL, 120 h, % growth, replicate 2
As shown below, each of these compounds has a reported Pf_120h_%Growth_Rep2 value.
Please reply with the bare figure in % and do not write the unit itself.

Check out these entries, answers already filled in.
COc1cc(O)c2c(c1C)C(C)C(O)(CO)OC2=O (stereo not drawn): 82.39
CC[C@H](C)[C@H]1O[C@]2(C=C[C@@H]1C)C[C@@H]1C[C@@H](C/C=C(\C)[C@@H](O[C@H]3C[C@H](OC)[C@@H](O[C@H]4C[C@H](OC)[C@H](NC(C)=O)[C@H](C)O4)[C@H](C)O3)[C@@H](C)/C=C/C=C3\CO[C@@H]4[C@H](O)C(C)=C[C@@H](C(=O)O1)[C@]34O)O2 [Eprinomectin B1a, reference compound]: 12.86

// switching to the query compound
According to the records, this compound C/C=C(/C)c1cc(O)c(C)c2c1Oc1c(C)c(O)cc(/C(C)=C\C)c1C(=O)O2 displays Pf_120h_%Growth_Rep2 of 105.49

* * *

tested on: T. gondii RH strain (RH-Tub-eYFP) tachyzoites; assay: microbe, parasite or virus in culture; format: cell-based, Toxoplasma gondii; conditions: Toxoplasma gondii, 72 h, T. gondii, 72 h, screen at 2 μg/mL, replicate 1; read-out: Tg_72h_%Growth_Rep1
measured_parameter: percent parasite growth at 2 µg/mL (%)
Please reply with the bare figure in % and do not write the unit itself.

CN(CC[C@H](N)CC(=O)N[C@H]1C=C[C@H](n2ccc(N)nc2=O)O[C@@H]1C(=O)O)C(=N)N: 73.3
O=c1[nH]c2ccccc2c(-c2ccccc2)c1O: 145
COc1cc(-c2oc3c(OC)c(OC)cc(O)c3c(=O)c2OC)ccc1O: 71.2
COC(=O)[C@]1(Cc2ccc3c(c2)C[C@H](O)C(C)(C)O3)OC(=O)C(O)=C1c1ccc(O)cc1: 130
C/C=C/[C@H]1O[C@@](O)([C@@H](C)[C@H](O)[C@H](C)[C@H]2OC(=O)/C(OC)=C/C(C)=C/[C@@H](C)[C@@H](O)[C@@H](CC)[C@@H](O)[C@H](C)C/C(C)=C/C=C/[C@@H]2OC)C[C@@H](O[C@H]2C[C@@H](O)[C@H](OC(N)=O)[C@@H](C)O2)[C@@H]1C: -1.66

According to the records, this compound CCCCCCCCCCC[C@@H](C[C@@H]1OC(=O)[C@H]1CCCCCC)OC(=O)[C@H](CC(C)C)NC=O [Tetrahydrolipstatin] displays percent parasite growth at 2 µg/mL of 88.5

* * *

test system: P. falciparum 3D7 parasites; experiment: P. falciparum growth inhibition assay, 2-cycle (120 h treatment), delayed-death screen and dose-response; assay type: cell-based, Plasmodium falciparum; conditions: Plasmodium falciparum, 3D7; P. falciparum, 120 h, screen at 2 μg/mL, replicate 2; read-out: Pf_120h_%Growth_Rep2
measured_parameter: activity at 2 µg/mL (%)
Please reply with the bare figure in % and do not write the unit itself.

Check out these entries, answers already filled in.
CCCCCCCCCC(=O)N[C@@H](Cc1c[nH]c2ccccc12)C(=O)N[C@H](CC(N)=O)C(=O)N[C@@H](CC(=O)O)C(=O)N[C@@H]1C(=O)NCC(=O)N[C@@H](CCCN)C(=O)N[C@@H](CC(=O)O)C(=O)N[C@H](C)C(=O)N[C@@H](CC(=O)O)C(=O)NCC(=O)N[C@H](CO)C(=O)N[C@@H]([C@H](C)CC(=O)O)C(=O)N[C@@H](CC(=O)c2ccccc2N)C(=O)O[C@@H]1C: 116
O=C1N[C@@H](Cc2c[nH]c3ccccc23)C(=O)N2CCC[C@@H]12 [Brevianamide F]: 91
COC[C@H]1OC(=O)c2coc3c2[C@@]1(C)C1=C(C3=O)[C@@H]2CCC(=O)[C@@]2(C)C[C@H]1OC(C)=O: 96.5
C=C(CC[C@]12O[C@H](C(=O)O)[C@@](O)(C(=O)O)[C@](C(=O)O)(O1)[C@H](OC(=O)/C=C/[C@@H](C)C[C@@H](C)CC)[C@H]2O)[C@@H](OC(C)=O)[C@H](C)Cc1ccccc1: 107
CC(C)[C@@H]1NC(=O)[C@H](C)OC(=O)[C@@H](C(C)C)NC(=O)[C@@H](C(C)C)OC(=O)[C@H](C(C)C)NC(=O)[C@H](C)OC(=O)[C@@H](C(C)C)NC(=O)[C@@H](C(C)C)OC(=O)[C@H](C(C)C)NC(=O)[C@H](C)OC(=O)[C@@H](C(C)C)NC(=O)[C@@H](C(C)C)OC1=O: 101

According to the records, this compound C=C[C@]1(C)C[C@@H](OC(=O)CSC(C)(C)CNC(=O)[C@H](N)C(C)C)[C@]2(C)[C@H](C)CC[C@]3(CCC(=O)[C@H]32)[C@@H](C)[C@@H]1O [Valnemulin, reference compound] displays activity at 2 µg/mL of 11.8

According to the records, this compound CN(C)c1cc(NC(=O)CNC(C)(C)C)c(O)c2c1C[C@H]1C[C@H]3[C@H](N(C)C)C(O)=C(C(N)=O)C(=O)[C@@]3(O)C(O)=C1C2=O displays activity at 2 µg/mL of 93.4

According to the records, this compound CC(=O)Nc1c2sscc-2n(C)c1=O displays activity at 2 µg/mL of 15.5
